- Procedure Text: Bioavailability - Rat PK
- Type: in vivo, male Sprague Dawley rats
- Test Conditions: male, Sprague Dawley, plasma, po 5 mg/kg vs iv 3 mg/kg
Assay Readout: bioavailability (%)
Numeric answer only, unit % assumed.

Record C[C@H]1CCC[C@@](O)(CNC(=O)c2c(Cl)ccc3nc(N4CC[C@@H](O)C4)ccc23)C1 [Example 2] . Reported bioavailability: 59

====

- Assay System: P2X7 receptor (Homo sapiens, UniProt Q99572)
- Construct: 200 μl of a suspension of THP-1 cells; endogenous in cells; host or cells: THP-1 cells
- Sequence (Q99572 whole entry): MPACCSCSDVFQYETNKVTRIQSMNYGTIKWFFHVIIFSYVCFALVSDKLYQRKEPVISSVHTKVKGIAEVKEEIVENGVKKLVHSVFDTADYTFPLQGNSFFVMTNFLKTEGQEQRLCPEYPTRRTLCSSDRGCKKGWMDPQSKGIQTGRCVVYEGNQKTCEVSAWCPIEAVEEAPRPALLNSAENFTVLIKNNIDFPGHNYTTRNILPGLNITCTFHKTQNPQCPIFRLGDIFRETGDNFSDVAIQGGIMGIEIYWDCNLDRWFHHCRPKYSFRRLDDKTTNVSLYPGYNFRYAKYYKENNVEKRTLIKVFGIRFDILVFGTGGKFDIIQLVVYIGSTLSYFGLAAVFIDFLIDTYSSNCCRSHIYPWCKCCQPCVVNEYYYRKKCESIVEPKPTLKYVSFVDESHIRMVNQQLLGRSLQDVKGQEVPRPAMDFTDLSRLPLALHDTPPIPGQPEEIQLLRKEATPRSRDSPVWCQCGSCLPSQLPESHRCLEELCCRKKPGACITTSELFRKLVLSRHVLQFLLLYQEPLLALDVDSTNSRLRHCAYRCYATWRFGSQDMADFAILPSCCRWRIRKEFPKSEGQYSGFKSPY
- Procedure Text: P2X7 assay (bbATP-induced ethidium bromide fluorescence in THP-1 cells)
- Type: cell-based
- Test Conditions: 10^-5M bbATP agonist, read-out: P2X7 pIC50 (converted)
Assay Readout: IC50 (nM)
Field format: number, assumed nM, no unit text.

In [3]: df
Out[3]:
                                   molecule                              assay_system  assay_readout  measurement_unit  meas_value
0  C[C@H]1CCC[C@@](O)(CNC(=O)c2c(Cl)ccc3nc(N4CCC(C)(O)C4)ccc23)C1 (single isomer, unassigned) [Example 4 - isomer 2]  P2X7 receptor (Homo sapiens, UniProt Q99572)           IC50                nM          10
1  C[C@H]1CCC[C@@](O)(CNC(=O)c2c(Cl)ccc3nc(N4CC[C@@H](O)C4)ccc23)C1 [Example 2]  P2X7 receptor (Homo sapiens, UniProt Q99572)           IC50                nM        7.94
2  C[C@H]1CCC[C@@](O)(CNC(=O)c2c(Cl)ccc3nc(N4CC[C@H](O)C4)ccc23)C1 [Example 1]  P2X7 receptor (Homo sapiens, UniProt Q99572)           IC50                nM        7.94

C[C@H]1CCC[C@@](O)(CNC(=O)c2c(Cl)ccc3nc(N4CCC(O)CC4)ccc23)C1 [Example 3] on P2X7 receptor (Homo sapiens, UniProt Q99572) gives IC50 = 7.94
